# Tested on: diamond back moth
# assayNotes: Insecticidal activity against diamond back moth (airbrush spray)
# Type: in vivo
# protocolConditions: 600 mg/L, mortality after 72 h; read-out: control of the second instar larvae of diamond back moth
pest or weed control at 600 µg/mL values, listed per item
Express it in %; write the number only.

// worked examples, pest or weed control at 600 µg/mL included
CCc1ncnc(NCCc2ccc3c(c2)OCO3)c1Cl [Compound 1465]; 100
FC(F)c1ncnc(NCc2ccc3c(c2)OCO3)c1Cl [CK9]; 0
ClCc1ncnc(NCCc2ccc3c(c2)OCO3)c1Cl [CK11]; 0
Cc1c(Cl)c(NCCc2ccc3c(c2)OCO3)nc[n+]1CC(=O)c1ccc(Cl)cc1 [CK10]; 0
COc1cc(CNc2ncnc(C)c2Cl)ccc1O [CK3]; 0
COc1ccc(CCNc2ncnc(C(F)F)c2Cl)cc1OC [CK5]; 40

Let's switch to this compound now.
Exercise: Look up pest or weed control at 600 µg/mL with diamond back moth for this compound: c1ccc2c(NCCc3ccc4c(c3)OCO4)ncnc2c1 [ACTA-1]
Key: 40

###

Quick list: pest or weed control at 100 µg/mL per entry.
# Test system: wheat powdery mildew
# assayNotes: Protectant activity in vivo (whole plant), wheat powdery mildew
# protocolConditions: Triticum aestivum, 168 h, 100 mg/L, read-out: protectant activity against wheat powdery mildew
# Method: The method is as followed: The whole plant is used in this test. The compound is dissolved in a proper solvent to get mother solution. The proper solvent is selected from acetone, methanol, DMF and so on according to their dissolving capability to the sample. […] The testing solution is sprayed to the host plant by a special plant sprayer. The plant is inoculated with fungus after 24 hours. […]
The reply should be a number in %, with the unit left off.

# example entries with known answers
Cc1ncnc(NC(C)c2ccc3c(c2)OC(F)(F)O3)c1Cl (stereo not shown); 80
COc1ccc(CCNc2ncnc(C(F)F)c2Cl)cc1OC; 20
COc1ccc(CCNc2ncnc(C(F)(F)F)c2Cl)cc1OC; 30
FC(F)c1ncnc(NCc2ccc3c(c2)OCO3)c1Cl; 10
COc1ccc(CNc2ncnc(C(F)F)c2Cl)cc1OC; 25
Cc1ncnc(NCc2ccc3c(c2)OCO3)c1Cl; 60

Exercise: Entry COc1ccc(CCNc2ncnc(C)c2Cl)cc1OC : reported pest or weed control at 100 µg/mL = ?
Key: 80

###

# System: corn rust
# assayNotes: Protectant activity in vivo (whole plant), corn rust
# protocolConditions: Zea mays, 168 h, 100 mg/L, read-out: protectant activity against corn rust
observedProperty: pest or weed control at 100 µg/mL (%)
Unit % implied. Number only.

Some entries whose results are on file:
COc1ccc(CCNc2ncnc(C(F)(F)F)c2Cl)cc1OC; 0
CCc1ncnc(NCCc2ccc3c(c2)OCO3)c1Cl; 95
FC(F)c1ncnc(NCc2ccc3c(c2)OCO3)c1Cl; 25
Cc1ncnc(NCc2ccc3c(c2)OCO3)c1Cl; 0
ClCc1ncnc(NCc2ccc3c(c2)OCO3)c1Cl; 0
c1ccc2c(NCc3ccc4c(c3)OCO4)ncnc2c1; 0
CCc1ncnc(NCc2ccc3c(c2)OCO3)c1Cl; 20
COc1ccc(CCNc2ncnc(C)c2Cl)cc1OC; 0
Cc1ncnc(NC(C)c2ccc3c(c2)OC(F)(F)O3)c1Cl (stereo not shown); 20

API: the following record is the query input.
Exercise: Sample ClCc1ncnc(NCCc2ccc3c(c2)OCO3)c1Cl — what was its pest or weed control at 100 µg/mL?
Key: 35

###

This listing pairs compounds with measured pest or weed control at 600 µg/mL.
# Tested on: diamond back moth
# assayNotes: Insecticidal activity against diamond back moth (airbrush spray)
# Assay type: in vivo
# protocolConditions: 600 mg/L, mortality after 72 h; read-out: control of the second instar larvae of diamond back moth
Use % as the unit, but write only the number.

Cc1ncnc(NCCc2ccc(O)cc2)c1Cl [CK4]; 0
COc1ccc(CCNc2ncnc(C)c2Cl)cc1OC [CK8]; 0
Cc1ncnc(NCCc2ccc3c(c2)OCO3)c1Cl [Compound 1452]; 80
Cc1ncnc(NCc2ccc3c(c2)OCO3)c1Cl [CK2]; 20

Exercise: Recorded pest or weed control at 600 µg/mL of ClCc1ncnc(NCc2ccc3c(c2)OCO3)c1Cl [CK12] , please.
Key: 0

Exercise: Can you handle c1ccc2c(NCc3ccc4c(c3)OCO4)ncnc2c1 [CK13] next?
Key: 0

Exercise: Consider next the compound Cc1ncnc(NC(C)c2ccc3c(c2)OC(F)(F)O3)c1Cl (stereo not shown) [PC-1] in the same way.
Key: 0

Taken from patent US9447081B2.
